ASSAY NOTES: clinical
CONDITION SUMMARY: human, in vivo, 9 mg/m2, t1/2
Measured half-life, listed per entry.
Numeric answer only, unit h assumed.

COMPOUND	half-life [h]
CC[C@@]1(OC(=O)[C@@H](C)O)C(=O)OCc2c1cc1n(c2=O)Cc2cc3c(CN(C)C)c(O)ccc3nc2-1 [TLC-U1, S,R-topotecan lactate]	3.68
CC[C@@]1(OC(=O)[C@H](C)O)C(=O)OCc2c1cc1n(c2=O)Cc2cc3c(CN(C)C)c(O)ccc3nc2-1 [TLC-U2, S,S-topotecan lactate]	3.26

stdin: I have this compound here, CC[C@@]1(O)C(=O)OCc2c1cc1n(c2=O)Cc2cc3c(CN(C)C)c(O)ccc3nc2-1 [Topotecan, reference compound] , and I need its recorded half-life.
stdout: 7.7
